B1: Pistol ribozyme (parent)
chain: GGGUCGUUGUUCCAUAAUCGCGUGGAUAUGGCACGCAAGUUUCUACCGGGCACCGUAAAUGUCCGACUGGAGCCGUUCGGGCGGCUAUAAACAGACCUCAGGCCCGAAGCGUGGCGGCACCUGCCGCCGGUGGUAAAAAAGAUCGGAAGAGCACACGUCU

Variants of: B1
EXPERIMENT: aptazyme ON/OFF ratio, guanine; higher = stronger switching; co-transcriptional cleavage with and without guanine
ASSAY_ENDPOINT: aptazyme ON/OFF ratio
Please give only the number in your answer, with no unit.

Enquiry: Quick one: aptazyme ON/OFF ratio of U8A U10C C13G ?
Return: 1.05

Enquiry: Quick one: aptazyme ON/OFF ratio of U7C U8C G9C U10A C12G ?
Return: 1.16

Enquiry: Quick one: aptazyme ON/OFF ratio of U7G U8G U10A U11C C12A ?
Return: 1.4

Enquiry: Quick one: aptazyme ON/OFF ratio of U7A G9A U10C U11A C13G ?
Return: 1.12

New cases:
Enquiry: Quick one: aptazyme ON/OFF ratio of U7G U8C U10G U11A C12U ?
Return: 1.22

Enquiry: Quick one: aptazyme ON/OFF ratio of U7G U8C G9U U11G C12G ?
Return: 1.34
